# testProtocol: Inhibition of Listeria monocytogenes recombinant HMGR class II expressed in Escherichia coli using HMG-CoA as substrate
readoutType: Ki

Tell me measured Ki for CC[C@H](C)C(=O)O[C@H]1C[C@@H](C)C=C2C=C[C@H](C)[C@H](CC[C@@H]3C[C@@H](O)CC(=O)O3)[C@H]21 [LOVASTATIN] please.
130 µM

---

# testProtocol: Inhibition of Streptococcus pneumoniae recombinant HMGR class II expressed in Escherichia coli using HMG-CoA as substrate
Criterion: Ki strictly less than 20 µM. Met: 1.0. Not met: 0.0.

molecule	answerLabel
CCCCCCCCCC[C@H](O)[C@H]1CC[C@H]([C@H](O)CC[C@H](O)[C@@H]2CC[C@@H](CCCCCCC[C@@H](O)CC3=C[C@H](C)OC3=O)O2)O1	1.0
CCCCCC[C@H](O)CCC[C@H](O)[C@H]1CC[C@H]([C@H](O)CC[C@H](O)[C@@H]2CC[C@@H](CCCCCCCCCC3=C[C@H](C)OC3=O)O2)O1	1.0

Please determine if CC[C@H](C)C(=O)O[C@H]1C[C@@H](C)C=C2C=C[C@H](C)[C@H](CC[C@@H]3C[C@@H](O)CC(=O)O3)[C@H]21 is below 20 µM in terms of Ki.
0.0

Consider the molecule CCCCCCCCCCC(O)C1CCC(C2CCC(C(O)CCCCCCCC[C@H](O)CC3=C[C@@H](C)OC3=O)O2)O1 (stereo not given in full) . Is its Ki strictly less than 20 µM?
1.0
